conditions: human gut metagenome, 24 h, 2 µM; note: call rule not given here
Parameter: Bacterial Biotransformation

These recorded examples may help you get a feel for the data.
Molecule	Bacterial Biotransformation
CC(=O)CCCCn1c(=O)c2c(ncn2C)n(C)c1=O	Compound NOT metabolized
Br.COc1ccc2c(c1)[C@]13CCCC[C@@H]1[C@H](C2)N(C)CC3.O [DEXTROMETHORPHAN HYDROBROMIDE]	Compound NOT metabolized
CCOc1ccccc1OCCN[C@H](C)Cc1ccc(OC)c(S(N)(=O)=O)c1.Cl [TAMSULOSIN HYDROCHLORIDE]	Compound NOT metabolized
CC(NC(C)(C)C)C(=O)c1cccc(Cl)c1 (stereo unspecified)	Compound NOT metabolized
CC(C)(C)NCC(O)COc1cccc2c1CC(O)C(O)C2 (stereo unspecified)	Compound NOT metabolized

molecule CCN(C)C(=O)Oc1cccc([C@H](C)N(C)C)c1.O=C(O)C(O)C(O)C(=O)O [RIVASTIGMINE TARTRATE] , Bacterial Biotransformation observed: Compound NOT metabolized

Given item `CC(C)c1nc(N(C)S(C)(=O)=O)nc(-c2ccc(F)cc2)c1/C=C/[C@@H](O)C[C@@H](O)CC(=O)[O-].CC(C)c1nc(N(C)S(C)(=O)=O)nc(-c2ccc(F)cc2)c1/C=C/[C@@H](O)C[C@@H](O)CC(=O)[O-].[Ca+2]` , the value recorded as its Bacterial Biotransformation is Compound metabolized

Entry source: ChEMBL document CHEMBL5724914
